System: rev protein
Assay: Competition filter binding against 32P-labelled R7 (FIGS. 13, 17)
Design: species or system HIV-1
Conditions: 1.5 nM labelled R7, 24 nM rev, 0-60 nM competitor
Readout label: competition for rev binding against labelled R7, result in words

[
  {
    "Substance": "RBC5: chemically synthesized RNA duplex, purine-rich bubble with 5 base pairs on each side (chain 1 GUGUGGGCGCAG; chain 2 CUGCGGUACACA; RNA, backbone not given here)",
    "Observed value": "less"
  }
]
